Assay read-out Ki; system under study: Somatostatin receptor type 1 (Homo sapiens, UniProt P30872).
Sequence (P30872 whole entry): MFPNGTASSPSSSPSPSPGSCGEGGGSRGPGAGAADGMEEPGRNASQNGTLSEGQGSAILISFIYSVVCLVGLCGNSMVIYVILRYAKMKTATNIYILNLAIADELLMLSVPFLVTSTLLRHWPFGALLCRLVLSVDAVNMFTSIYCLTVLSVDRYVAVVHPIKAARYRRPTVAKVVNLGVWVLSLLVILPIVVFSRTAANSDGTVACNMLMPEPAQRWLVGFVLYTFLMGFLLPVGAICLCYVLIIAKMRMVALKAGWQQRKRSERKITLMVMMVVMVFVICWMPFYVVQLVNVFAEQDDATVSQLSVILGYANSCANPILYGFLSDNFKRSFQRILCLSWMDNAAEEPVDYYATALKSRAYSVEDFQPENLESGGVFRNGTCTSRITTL
Where a SMILES comes first, the peptide text is derived from it. [ ]: non-standard residue; d: D form. The star is where a group is joined. ξ: configuration not given here. Phe(4-Cl) = N[C@@H](Cc1ccc(Cl)cc1)C(=O)O; 2Nal = N[C@@H](Cc1ccc2ccccc2c1)C(=O)O; d1Nal = N[C@H](Cc1cccc2ccccc12)C(=O)O; Thr(3ξ) = CC(O)[C@H](N)C(=O)O; NMeA = CN[C@@H](C)C(=O)O; Abu = CC[C@H](N)C(=O)O; Aoc = NCCCCCCCC(=O)O; Ahp = NCCCCCCC(=O)O; Bn = c1ccc(C*)cc1
Numbers only here, please. The scale is nM.

Answered cases to consult:
{"Molecule": "CC[C@@H]1NC(=O)[C@H](CCCCN)NC(=O)[C@@H](Cc2c[nH]c3ccccc23)NC(=O)[C@H](Cc2ccc(O)cc2)NC(=O)[C@H](C)N(C)C(=O)[C@H](Cc2ccccc2)NC1=O [BIM-23027] (cyclo([Abu]F[NMeA]Y[dW]K))", "Ki [nM]": 1000}
{"Molecule": "CC(C)[C@H](NC(=O)[C@H](CCCCN)NC(=O)[C@@H](Cc1c[nH]c2ccccc12)NC(=O)[C@H](Cc1ccc(O)cc1)NC(=O)[C@H](Cc1ccc(Cl)cc1)NC(=O)[C@H](N)Cc1ccccc1)C(=O)N[C@@H](Cc1ccccc1)C(=O)N[C@H](C(N)=O)[C@@H](C)O [BIM 23057] (H-[dF][Phe(4-Cl)]Y[dW]KVFT-NH2)", "Ki [nM]": 1000}

Consider the molecule `CC(C)[C@@H]1NC(=O)[C@H](CCCCN)NC(=O)[C@@H](Cc2c[nH]c3ccccc23)NC(=O)[C@H](Cc2ccc(O)cc2)NC(=O)[C@@H](C)N(C)C(=O)[C@H](Cc2ccccc2)NC1=O` and give its measured Ki. 419

Consider the molecule C[C@@H](O)[C@H](NC(=O)[C@H](Cc1ccccc1)NC(=O)[C@@H](NC(=O)[C@H](CCCCN)NC(=O)[C@@H](Cc1c[nH]c2ccccc12)NC(=O)[C@H](Cc1ccc(O)cc1)NC(=O)[C@H](Cc1ccc(Cl)cc1)NC(=O)[C@H](N)Cc1ccccc1)[C@@H](C)O)C(N)=O [BIM 23068] (H-[dF][Phe(4-Cl)]Y[dW]KTFT-NH2) and give its measured Ki. 1000

Consider the molecule CC(C)[C@H](NC(=O)[C@H](CCCCN)NC(=O)[C@@H](Cc1c[nH]c2ccccc12)NC(=O)[C@H](Cc1ccc(O)cc1)NC(=O)[C@H](Cc1ccccc1)NC(=O)[C@H](N)Cc1ccccc1)C(=O)N[C@@H](Cc1ccccc1)C(=O)N[C@H](Cc1cccc2ccccc12)C(N)=O [BIM 23056] (H-[dF]FY[dW]KVF[d1Nal]-NH2) and give its measured Ki. 1000

Consider the molecule C[C@@H](O)[C@@H]1NC(=O)[C@H](CCCCN)NC(=O)[C@@H](Cc2c[nH]c3ccccc23)NC(=O)[C@H](Cc2ccc(Cl)cc2)NC(=O)[C@H](Cc2ccccc2)NC(=O)CCCCCCNC(=O)[C@H](Cc2ccccc2)NC1=O [L-362862] (cyclo([Ahp]F[Phe(4-Cl)][dW]KTF)) and give its measured Ki. 580

Consider the molecule CC(O)[C@H](NC(=O)[C@H](CCCCN)NC(=O)[C@@H](Cc1c[nH]c2ccccc12)NC(=O)[C@H](Cc1ccccc1)NC(=O)[C@@H](C)NC(=O)[C@@H](N)Cc1ccccc1)C(=O)N[C@@H](C)C(=O)N[C@H](C(N)=O)[C@@H](C)O (stereo partly drawn) [BIM 23051] (H-F[dA]F[dW]K[Thr(3ξ)]AT-NH2) and give its measured Ki. 1000

Consider the molecule C[C@@H](OCc1ccccc1)[C@@H]1NC(=O)[C@H](CCCCN)NC(=O)[C@@H](Cc2c[nH]c3ccccc23)NC(=O)[C@H](Cc2ccccc2)NC(=O)CCCCCCCNC1=O [c[Aoc-Phe-D-Trp-Lys-Thr(Bzl)]] (cyclo([Aoc]F[dW]KT(Bn))) and give its measured Ki. 700

Consider the molecule CC(C)[C@H](NC(=O)[C@H](CCCCN)NC(=O)[C@@H](Cc1c[nH]c2ccccc12)NC(=O)[C@H](Cc1ccc(O)cc1)NC(=O)[C@H](Cc1ccc(Cl)cc1)NC(=O)[C@@H](N)Cc1ccccc1)C(=O)N[C@@H](Cc1ccccc1)C(=O)N[C@@H](Cc1ccc2ccccc2c1)C(N)=O [BIM 23063] (H-F[Phe(4-Cl)]Y[dW]KVF[2Nal]-NH2) and give its measured Ki. 1000
